target: HIV integrase (Human immunodeficiency virus type 1 group M subtype B, UniProt P12497, F1332H); construct: HIV integrase full length gene; assay: Determination of enzyme (HIV integrase) inhibitory activity; settings: recombinant HIV integrase (F185H), strand transfer ELISA, absorbance at 450 nm
Counter-ions that a name gives are not always drawn.
measurement-type: IC50

compound	IC50
O=C1c2c(O)c(=O)c(-c3ccncn3)cn2CCN1Cc1cccc(Cl)c1 [Example 268]	< 10 nM
O=c1c(-c2ccccn2)cn2ccn(Cc3ccc(F)cc3)c(=O)c2c1O [Example 306, trifluoroacetate]	10 to 100 nM
CC(C)CC(=O)c1cn2ccn(Cc3ccc(F)cc3)c(=O)c2c(O)c1=O [Example 387, hydrochloride]	10 to 100 nM

Go through the items and report each one's IC50.
1. O=C1c2c(O)c(=O)c(-c3ccccn3)cn2CCN1Cc1ccc(Cl)c(Cl)c1 [Example 373, trifluoroacetate]
2. CCCCCN1CCn2cc(-c3nccs3)c(=O)c(O)c2C1=O [Example 339, hydrochloride]
3. O=c1c(-c2ccncn2)cn2ccn(Cc3cccc(Cl)c3F)c(=O)c2c1O [Example 342, trifluoroacetate]

A)
< 10 nM
100 to 1000 nM
< 10 nM

Go through the items and report each one's IC50.
1. CC(C)(C)C(=O)c1cn2ccn(Cc3ccc(F)cc3)c(=O)c2c(O)c1=O [Example 251, hydrochloride]
2. CC(=O)c1cn2ccn(Cc3ccc(F)c(Cl)c3)c(=O)c2c(O)c1=O [Example 244, hydrochloride]

A)
1. < 10 nM
2. < 10 nM

---

biological target: HIV integrase (Human immunodeficiency virus type 1 group M subtype B, UniProt P12497, F1332H); construct: HIV integrase full length gene; assay: Determination of enzyme (HIV integrase) inhibitory activity; details: recombinant HIV integrase (F185H), strand transfer ELISA, absorbance at 450 nm
pIC50: −log10 of the molar value. Where a name gives a salt, the structure may show the parent alone.
measurement-type: pIC50

compound	measurement-type	result
CC(C)(C)C(=O)c1cc(=O)c(O)c2n1CCN(Cc1ccc(Cl)c(Cl)c1)C2=O	pIC50	> 8.00
CCNC(=O)c1cn2ccn(Cc3cccc(Cl)c3)c(=O)c2c(O)c1=O	pIC50	> 8.00
O=C1c2c(O)c(=O)c(-c3nccs3)cn2CCN1Cc1ccccc1Cl	pIC50	6.00 to 7.00

Q) Give the value of pIC50 reported for the following: O=c1c(-c2nnc[nH]2)cn2ccn(Cc3cccc(Cl)c3)c(=O)c2c1O [Example 164, hydrochloride]
A) 7.00 to 8.00

---

Molecular target: HIV integrase (Human immunodeficiency virus type 1 group M subtype B, UniProt P12497, F1332H)
Construct: HIV integrase full length gene
Experiment: Determination of enzyme (HIV integrase) inhibitory activity
Conditions: recombinant HIV integrase (F185H), strand transfer ELISA, absorbance at 450 nm
Description: The following explains evaluation methods of the HIV integrase inhibitory activity of the compound of the present invention. (i) Construction of Recombinant Integrase Gene Expression System […] A peroxidase color solution (Bio Rad, 100 μl) was added and allowed to react at room temperature for 4 min. […] The absorbance at 450 nm was measured. […]
pIC50: −log10 of the molar value. Where a name gives a salt, the structure may show the parent alone.
Kindly supply the reported pIC50 values for the records listed here.

Worked examples follow.
molecule	pIC50
O=c1c(-c2cnccn2)cn2ccn(Cc3cccc(Cl)c3)c(=O)c2c1O [Example 231, hydrochloride]	> 8.00
O=c1c(-c2ccccc2)cn2c(CC3CCCCC3)cn(Cc3cccc(Cl)c3)c(=O)c2c1O [Example 119, hydrochloride]	6.00 to 7.00
O=C1c2c(O)c(=O)ccn2CCN1Cc1ccc(Cl)c(F)c1	7.00 to 8.00
CNC(=O)c1cn2c(c(O)c1=O)C(=O)N(Cc1ccc(F)cc1)CC2	6.00 to 7.00
O=C(NCCF)c1cn2ccn(Cc3cccc(Cl)c3)c(=O)c2c(O)c1=O	> 8.00

Go through the items and report each one's pIC50.
1. O=C1c2c(O)c(=O)c(-c3nccs3)cn2CCN1Cc1cc(Cl)cc(OCc2ccccc2)c1 [Example 398, hydrochloride]
2. O=c1c(-c2ccccc2C(F)(F)F)cn2ccn(Cc3cccc(Cl)c3)c(=O)c2c1O [Example 127, hydrochloride]
3. O=C(NC(Cc1ccccc1)c1ccccc1)c1cn2c(c(O)c1=O)C(=O)N(Cc1cccc(Cl)c1)CC2 (centres unmarked)

A)
7.00 to 8.00
> 8.00
7.00 to 8.00
